The origin of these recorded values is patent US20220089646A1.

biological target: bovine pancreatic trypsin (Bos taurus, UniProt P00760); construct: from tissue; host or cells: bovine pancreas; assay: Trypsin stability assay (Table 10); type: in vitro ADME; conditions: bovine pancreatic trypsin 2.5 μg/mL, 37° C., One Phase Decay; read-out: Stability (t1/2, mins) Trypsin
*1 amine or outer side, *2 acyl side, *3 side chain or, on linkers, in order; H or OH if unused. Where a SMILES comes first, the peptide text is derived from it. Bridges are numbered along the chain shown (N, C = ends). [ ]: non-standard residue; d: D form. ξ: configuration not given here. Phe(4-Cl) = N[C@@H](Cc1ccc(Cl)cc1)C(=O)O; NHCH2CMe2S = CC(C)(CN[*:1])S[*:2]; X1 = CC(C)(CN[*:2])S[*:1]; ξC = NC(CS)C(=O)O; Sar = CNCC(=O)O
The molecules listed here are annotated with their half-life.
// return numeric value only (unit: min, not printed)

Take a look at these entries with their results.
CC[C@H](C)[C@H](NC(=O)C1CSSC(C)(C)CNC(=O)C[C@@H](NC(=O)[C@H](Cc2ccccc2)NC(=O)CNC(=O)CNC(=O)[C@@H](N)Cc2ccc(O)cc2)C(=O)N[C@@H](CCCNC(=N)N)C(=O)N1)C(=O)N[C@@H](CCCNC(=N)N)C(=O)N1CCC[C@H]1C(=O)N[C@@H](CCCCN)C(N)=O (stereo partly drawn) [DP-11-06] (H-YGGF[dD]R[ξC]IRPK-NH2; linker 5-7 via NHCH2CMe2S; N-terminus assumed)	360
CC(C)C[C@H](NC(=O)[C@H](Cc1ccc(Cl)cc1)NC(=O)CN(C)C(=O)[C@@H](N)Cc1ccc(O)cc1)C(=O)N[C@@H](CCCNC(=N)N)C(=O)N[C@H](CCCNC(=N)N)C(=O)N[C@H]1CSSC(C)(C)CNC(=O)C[C@@H](C(N)=O)NC1=O [CP9] (H-Y[Sar][Phe(4-Cl)]LR[dR]CD-NH2; linker 7-8 via X1)	49.8

Turning to the following molecule.
// query half-life value for entry CC(C)C[C@H](NC(=O)[C@H](Cc1ccc(Cl)cc1)NC(=O)CN(C)C(=O)[C@@H](N)Cc1ccc(O)cc1)C(=O)N[C@@H](CCCNC(=N)N)C(=O)N[C@H](CCCNC(=N)N)C(=O)NC1CSSC(C)(C)CNC(=O)C[C@@H](C(=O)N[C@@H](CCCCN)C(N)=O)NC(=O)[C@H](CCCNC(=N)N)NC1=O (stereo partly drawn) [CP10] (H-Y[Sar][Phe(4-Cl)]LR[dR][ξC]RDK-NH2; linker 7-9 via X1; N-terminus assumed) 2.3

---

assay: Serum stability; type: in vitro ADME; conditions: rat, more sensitive LC-MS (Table 8a), read-out: Incubation in serum: half life
MEASURED_ENDPOINT: half-life at 0.125 mg/mL

I would be grateful if you could share the reported half-life at 0.125 mg/mL for CC1(C)CNC(=O)C[C@H](C(=O)N[C@@H](CCCNC(=N)N)C(=O)N[C@@H](CCCNC(=N)N)C(N)=O)NC(=O)[C@H](Cc2ccccc2)NC(=O)CNC(=O)[C@@H](NC(=O)[C@@H](N)Cc2ccc(O)cc2)CSS1 [DP-7-11, c(Tyr-SSa-Gly-Phe-D(Asp)-Arg-Arg)] . > 6 h

---

Target: trypsin (Bos taurus, UniProt P00760)
Sequence (P00760 24-246): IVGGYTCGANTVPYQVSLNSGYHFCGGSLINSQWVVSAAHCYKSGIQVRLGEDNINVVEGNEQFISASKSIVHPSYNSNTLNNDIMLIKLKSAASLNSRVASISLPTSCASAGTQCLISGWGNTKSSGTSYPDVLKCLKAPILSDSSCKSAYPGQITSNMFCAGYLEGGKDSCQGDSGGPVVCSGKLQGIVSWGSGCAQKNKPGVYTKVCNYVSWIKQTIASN
Experiment: Trypsin stability
Format: in vitro ADME
Details: trypsin solution; at 30 min, more sensitive LC-MS; read-out: Incubation in trypsin: peptide remaining
MEASURED_ENDPOINT: remaining at 0.5 h, 0.125 mg/mL

// query remaining at 0.5 h, 0.125 mg/mL value for entry CC1(C)CNC(=O)C[C@H](C(=O)N[C@@H](CCCNC(=N)N)C(=O)N[C@@H](CCCNC(=N)N)C(N)=O)NC(=O)[C@H](Cc2ccccc2)NC(=O)CNC(=O)[C@@H](NC(=O)[C@@H](N)Cc2ccc(O)cc2)CSS1 ~25%
